- Test system: MDA-MB-468 breast
- Assay text: NCI-60 one-dose screen, 48 h
- Cond: 10 µM unless noted
About 83,000 compounds went through this panel and 20% of them were active in at least one assay; those are over-represented in the sample as a whole. The source made the active and inactive calls. How the source made its calls: active means growth percent below 10; inactive means the rest.
Outcomes: TRUE = active, FALSE = inactive

# Smiles representation, Measurement target, Class
measured = [
    ("COc1ccc(S(=O)(=O)n2ccc(-c3ccc4c(c3)CCC(C)(C)O4)n2)cc1OC", "MDA-MB-468 breast", "FALSE"),
    ("COc1ccc(/C=C2\\CN(C(=O)C(Cl)Cl)C/C(=C\\c3ccc(OC)cc3)C2=O)cc1", "MDA-MB-468 breast", "TRUE"),
    ("Nc1cc(-c2c[nH]c3ccc(Cl)cc23)nc2cc(-c3c[nH]c4ccc(Cl)cc34)nn12", "MDA-MB-468 breast", "FALSE"),
    ("CCCCCCCC(=O)SCC/C=C/[C@@H]1CC(=O)NCc2cccc(n2)CN(Cc2ccc(Cl)cc2)CC(=O)N[C@@H](C(C)C)C(=O)O1", "MDA-MB-468 breast", "FALSE"),
]

---

# growth annotations
- System: MDA-MB-468 breast
- Assay text: NCI-60 one-dose screen, 48 h (100 = growth as untreated, 0 = no growth, -100 = all killed)
- Cond: 10 µM unless noted
The panel holds about 83,000 compounds, 20% with a hit somewhere; the sample as a whole holds those more often.

# Compound, Measurement target, growth / %
measured = [
    ("CC1=C[C@H]2c3c(c(O)c(O)c4oc5c(C)cccc5c(=O)c34)[C@H](c3cc(O)c(O)c4oc5c(C)cccc5c(=O)c34)[C@H]2C(C)(C)C1", "MDA-MB-468 breast", 21.6),
    ("CC(=O)O[C@]1(C(C)=O)CCC2C3C[C@H](C)C4=CC(=O)CC[C@]4(C)C3CC[C@@]21C (stereo not given in full)", "MDA-MB-468 breast", 86.4),
    ("O=C1C(Cl)=C(Nc2cccc3cc4ccccc4nc23)C(=O)c2ccccc21", "MDA-MB-468 breast", 40.9),
    ("O=C(Cc1nc2cc(Cl)c(Cl)cc2nc1CC(=O)c1ccccc1)c1ccccc1", "MDA-MB-468 breast", -55),
    ("C=CCc1cc(C(C)=O)cc(OC)c1O", "MDA-MB-468 breast", 90.6),
]

---

Reported growth is given for each of the following compounds.
- System: MDA-MB-468 breast
- Assay text: NCI-60 one-dose screen, 48 h (100 = growth as untreated, 0 = no growth, -100 = all killed)
- Cond: 10 µM unless noted
This is part of a sample that, as a whole, favours compounds with a hit. Of some 83,000 tested, about 20% had one in any assay. The source made the active and inactive calls. How the source made its calls: active means growth percent below 10; inactive means the rest.
Measurement type: growth

# Compound, Value observed
measured = [
    ("COc1cc2c(c(OC)c1OC)CCC(c1cccc(C(=O)Nc3cccc(Br)c3)c1)O2 (centres undefined)", "58.6% (inactive)"),
    ("O=c1[nH]c(CNc2ccc(NCc3c(-c4ccccc4)no[n+]3[O-])cc2)nc2c1cnn2-c1ccccc1", "33.2% (inactive)"),
    ("O=C1/C(=C/c2cccc(F)c2)CN(C(=O)C(Cl)Cl)C/C1=C\\c1cccc(F)c1", "-47.4% (active)"),
    ("Cc1cc2[nH]c(=O)c3c4ncccc4cn3c2cc1C", "23.2% (inactive)"),
    ("CCc1cnc(=S)n(-c2ccccc2)c1", "117% (inactive)"),
    ("C/C(=N\\Nc1ccc([N+](=O)[O-])cn1)c1ccc(N)cc1", "99.7% (inactive)"),
    ("COc1cc(-c2nc3ccc(-c4nnc(SCC(=O)Nc5ccc(C(=O)/C=C/c6ccc(Cl)cc6)cc5)o4)cc3[nH]2)cc(OC)c1OC", "93% (inactive)"),
    ("CCOC(=O)C(C)(c1ccccc1)c1ccccc1", "109% (inactive)"),
    ("CO[C@H](C(=O)[C@@H](O)[C@@H](C)O)[C@@H]1Cc2cc3cc(O[C@H]4C[C@@H](O[C@H]5C[C@@H](O)[C@H](O)C(C)O5)[C@H](O)C(C)(O)O4)cc(O)c3c(O)c2C(=O)[C@H]1O[C@H]1C[C@@H](O[C@H]2C[C@@H](O[C@H]3C[C@@H](OC)[C@H](O)C(C)O3)[C@@H](O)C(C)O2)[C@H](O)C(C)O1 (some centres undefined)", "14% (inactive)"),
    ("CCOP(=O)(NC(c1ccccc1)c1ccccc1)OCC", "104% (inactive)"),
    ("Cc1ccc(-n2c(/C=C3\\C(=O)Nc4ccccc43)ccc2CO)cc1", "45.1% (inactive)"),
    ("CC(C)[C@@H]1CC[C@]2(CO2)[C@@H]2C(=O)OCC(C(=O)O)=C[C@H]21", "7.72% (active)"),
    ("Cc1c(C)c2c(c(C)c1OCC(=O)O)CC[C@@](C)(CCC[C@@H](C)CCC[C@@H](C)CCCC(C)C)O2", "0.25% [50 µM] (active)"),
    ("COc1cc2oc(-c3cccc(C(=O)Nc4ccc(C#N)cc4)c3)cc(=O)c2c(O)c1OC", "77.3% (inactive)"),
    ("COc1ccc(-c2cc(-c3cc(OC)ccc3OC)[nH]c(=O)c2C#N)cc1", "37.9% (inactive)"),
    ("COC(=O)c1c2c(c(C)[n+]([O-])c1C)C(=O)C=C(NCc1ccc(F)c(F)c1)C2=O", "-78.4% (active)"),
    ("CSc1nc2ccc(C)cc2cc1/C=N/O", "101% (inactive)"),
    ("CCCCCCCCN=C(NCCCCCCCC)SCc1cccc2ccccc12", "-93.9% (active)"),
    ("O=S(=O)(NCCNc1cc(-c2c(-c3cccc(O)c3)nc3sccn23)ccn1)c1ccc(Cl)cc1", "51.5% (inactive)"),
]

---

- Tested on: MDA-MB-468 breast
- Assay text: NCI-60 one-dose screen, 48 h (100 = growth as untreated, 0 = no growth, -100 = all killed)
- Cond: 10 µM unless noted
- Description: Growth inhibition of the MDA-MB-468 human Breast tumor cell line is measured as a screen for anti-cancer activity. Cells are grown in 96 well plates and exposed to the test compound for 48 hours. Compounds are tested at a single concentration, which is 10^-5 M for most compounds. The reported endpoint is percent growth (GI% or GIPRCNT), where numbers from 0 - 100% represent growth inhibition, and numbers from -100% - 0 represent cell death. […]
About 83,000 compounds went through this panel and 20% of them were active in at least one assay; those are over-represented in the sample as a whole.

# Compound, Measurement unit, growth
data = [
    ("CC(=O)O[C@H]1CC[C@]2(C)[C@H]3C(=O)C=C4[C@@H]5C[C@](C)(C(=O)N6CCCNCC6)CC[C@]5(C)CC[C@@]4(C)[C@]3(C)CC[C@H]2C1(C)C", "%", -85.2),
    ("CCOC(=O)CC(=O)CSC1=NC2C(NN1)N(C)C(=O)N2C (centres undefined)", "%", 12.2),
    ("COc1ccc(OC)c(/C=C2\\Oc3cc(OCCCN4CCCC4)ccc3C2=O)c1", "%", 77.7),
    ("O=C(c1ccccc1)c1c(/C=C/c2ccccc2)c2ccccc2[nH]c1=O", "%", 94.5),
    ("S=c1nn[nH]n1C1CCCCC1", "%", 125),
    ("O=C(c1ccncc1)N1N=C(c2ccc(Cl)cc2)CC1c1c[nH]c2ccccc12 (centres undefined)", "%", 102),
    ("CN(C)CCN1C(=O)c2cccc3c(-c4ccc5ncn(C6CCCCC6)c5c4)ccc(c23)C1=O", "%", 4.33),
    ("Cc1sc2nc(NCCc3cccs3)[nH]c(=O)c2c1C", "%", 82.4),
    ("CCCCCC(=O)c1ccc(OCCCN2CCN(C(=O)OCC)CC2)cc1", "%", 47.5),
    ("O=C1/C(=C\\c2ccccc2)CN(C(=O)c2ccccc2)C/C1=C\\c1ccccc1", "%", -48.6),
    ("CN1C(=O)C(C2=NNC(c3ccccc3C(=O)O)C2)C(=O)N(C)C1=O (centres undefined)", "%", 96.4),
    ("CSc1ccc(-c2n[nH]nc2-c2cc3ccccc3s2)cc1", "%", 54),
    ("C#CCNC(=O)[C@H](Cc1ccccc1)NC(=O)[C@]12CC[C@@H](C(=C)C)[C@@H]1[C@H]1CC[C@@H]3[C@@]4(C)Cc5c([nH]c6ccccc56)C(C)(C)[C@@H]4CC[C@@]3(C)[C@]1(C)CC2", "%", 97.9),
    ("COc1cccc(-c2cc(C(=O)Nc3ccc(/C=C/c4ccc(OC5CCN(C)CC5)cc4)cc3)ccc2OC)c1", "%", -36.4),
    ("COc1ccc(Cn2c(Br)c3c(c2Br)-c2nc(NC(=O)c4ccc(OC)cc4)sc2CC3)cc1", "%", 83.5),
    ("COc1ccc(OC)c(-c2c(C#N)c(-c3ccco3)nc3c2c(-c2ccccc2)nn3-c2ccccc2)c1", "%", 98.4),
    ("O=C(O)/C=C(\\c1nc2ccc([N+](=O)[O-])cc2[nH]1)c1cc(Cl)ccc1O", "%", -2.53),
    ("NNC(=O)C1CC2c3ccccc3C1c1ccccc12 (centres undefined)", "%", 112),
    ("Nc1ccccc1SC1CC(=O)N(c2cccc3ccccc23)C1=O (centres undefined)", "%", 87),
]
